Measured glycan array binding signal (z-score) of individual entries
Target: Fuc(a1-2)Gal(b1-3)GalNAc(b1-3)Gal(b1-4)Glc
Experiment: glycan array binding signal (z-score within array); higher = stronger binding
Settings: glycan notation: IUPAC condensed, linker removed
Many of the other results were omitted from the sample, so the strongest signals are more common in it than they were.
Write the number on its own, no unit after it.

Look over these answered cases.
- binder: "TbCVNHOb (Tuber borchii) (protein) GSHIGPYMSFYASSEDVRTIEEGGRTWLVGRARRADGSWQDIKLDLDNIIGNRDGHLTWGEQNFTQSASDIRFNFEGGSNVPVLRAKLRNAAGGEQESDLNLGERLTNNNGDLVFN"
  glycan array binding signal (z-score): 4.24
- binder: "FBG5 (Homo sapiens), Q8NI29 (protein) MGASVSRGRAARVPAPEPEPEEALDLSQLPPELLLVVLSHVPPRTLLGRCRQVCRGWRALVDGQALWLLILARDHGATGRALLHLARSCQSPARNARPCPLGRFCARRPIGRNLIRNPCGQEGLRKWMVQHGGDGWVVEENRTTVPGAPSQTCFVTSFSWCCKKQVLDLEEEGLWPELLDSGRIEICVSDWWGARHDSGCMYRLLVQLLDANQTVLDKFSAVPDPIPQWNNNACLHVTHVFSNIKMGVRFVSFEHRGQDTQFWAGHYGARVTNSSVIVRVRLS"
  glycan array binding signal (z-score): -0.166

# context switch: different binder, same glycan array binding signal (z-score)
Ask: Please report glycan array binding signal (z-score) for the following binder: Alpha-agglutinin (Saccharomyces cerevisiae) (protein) MFTFLKIILWLFSLALASAININDITFSNLEITPLTANKQPDQGWTATFDFSIADASSIREGDEFTLSMPHVYRIKLLNSSQTATISLADGTEAFKCYVSQQAAYLYENTTFTCTAQNDLSSYNTIDGSITFSLNFSDGGSSYEYELENAKFFKSGPMLVKLGNQMSDVVNFDPAAFTENVFHSGRSTGYGSFESYHLGMYCPNGYFLGGTEKIDYDSSNNNVDLDCSSVQVYSSNDFNDWWFPQSYNDTNADVTCFGSNLWITLDEKLYDGEMLWVNALQSLPANVNTIDHALEFQYTCLDTIANTTYATQFSTTREFIVYQGR
Reply: 6.41
